Every entry's value here was drawn from ChEMBL document CHEMBL4190368.

Some compounds, each annotated with its measured selectivity ratio.
- protocolNotes: Selectivity index, ratio of IC50 for rat L6 cells to IC50 for chloroquine and pyrimethamine resistant Plasmodium falciparum K1
- Assay type: toxicity
- setupConditions: L6 cells versus Plasmodium falciparum K1, read-out: Ratio IC50
propertyLabel: selectivity ratio

| compound | propertyLabel | result |
| --- | --- | --- |
| C[C@H]1[C@H](OC(=O)CCC(=O)O)O[C@@H]2O[C@@]3(C)CC[C@H]4[C@H](C)CC[C@@H]1[C@@]24OO3 [ARTESUNATE] | selectivity ratio | 13300 |
| O=C(NCCCN(CCCCCCCCN(CCCNC(=O)C1CCC2(CC1)OOC1(O2)C2CC3CC(C2)CC1C3)C(=O)C1CCC2(CC1)OOC1(O2)C2CC3CC(C2)CC1C3)C(=O)C1CCC2(CC1)OOC1(O2)C2CC3CC(C2)CC1C3)C1CCC2(CC1)OOC1(O2)C2CC3CC(C2)CC1C3 (stereo not drawn) | selectivity ratio | 5380 |
| C[C@H]1[C@H](OC(=O)CCC(=O)NCCCN(CCCCCCCCN(CCCNC(=O)CCC(=O)O[C@@H]2O[C@@H]3O[C@@]4(C)CC[C@H]5[C@H](C)CC[C@@H]([C@H]2C)[C@@]35OO4)C(=O)CCC(=O)O[C@@H]2O[C@@H]3O[C@@]4(C)CC[C@H]5[C@H](C)CC[C@@H]([C@H]2C)[C@@]35OO4)C(=O)CCC(=O)O[C@@H]2O[C@@H]3O[C@@]4(C)CC[C@H]5[C@H](C)CC[C@@H]([C@H]2C)[C@@]35OO4)O[C@@H]2O[C@@]3(C)CC[C@H]4[C@H](C)CC[C@@H]1[C@@]24OO3 | selectivity ratio | 1500 |

###

- Test system: L6
- protocolNotes: Cytotoxicity in rat L6 cells assessed as reduction in cell viability incubated for 72 hrs by alamar blue dye based assay
- setupConditions: L6, 72 h

| compound | tgt | IC50 [µM] |
| --- | --- | --- |
| C[C@H]1[C@H](OC(=O)CCC(=O)NCCCN(CCCCCCCCN(CCCNC(=O)CCC(=O)O[C@@H]2O[C@@H]3O[C@@]4(C)CC[C@H]5[C@H](C)CC[C@@H]([C@H]2C)[C@@]35OO4)C(=O)OC(C)(C)C)C(=O)OC(C)(C)C)O[C@@H]2O[C@@]3(C)CC[C@H]4[C@H](C)CC[C@@H]1[C@@]24OO3 | L6 | 0.56 |
| O=C(O)C1CCC2(CC1)OOC1(O2)C2CC3CC(C2)CC1C3 (centres undefined) | L6 | 139 |
| C[C@H]1[C@H](OC(=O)CCC(=O)NCCCN(CCCCCCCN(CCCNC(=O)CCC(=O)O[C@@H]2O[C@@H]3O[C@@]4(C)CC[C@H]5[C@H](C)CC[C@@H]([C@H]2C)[C@@]35OO4)C(=O)OC(C)(C)C)C(=O)OC(C)(C)C)O[C@@H]2O[C@@]3(C)CC[C@H]4[C@H](C)CC[C@@H]1[C@@]24OO3 | L6 | 0.97 |
| C[C@H]1[C@H](OC(=O)CCC(=O)NCCCN(CCCCCCN(CCCNC(=O)CCC(=O)O[C@@H]2O[C@@H]3O[C@@]4(C)CC[C@H]5[C@H](C)CC[C@@H]([C@H]2C)[C@@]35OO4)C(=O)CCC(=O)O[C@@H]2O[C@@H]3O[C@@]4(C)CC[C@H]5[C@H](C)CC[C@@H]([C@H]2C)[C@@]35OO4)C(=O)CCC(=O)O[C@@H]2O[C@@H]3O[C@@]4(C)CC[C@H]5[C@H](C)CC[C@@H]([C@H]2C)[C@@]35OO4)O[C@@H]2O[C@@]3(C)CC[C@H]4[C@H](C)CC[C@@H]1[C@@]24OO3 | L6 | 0.88 |

###

- System: Plasmodium falciparum
- protocolNotes: Antiplasmodial activity against chloroquine and pyrimethamine resistant Plasmodium falciparum K1 assessed as reduction in [3H]-hypoxanthine incorporation incubated for 48 hrs by liquid scintillation counting method
- Type: functional, organism-based
pIC50: −log10 of the molar value.

| molecule | pIC50 |
| --- | --- |
| CC(C)(C)OC(=O)N(CCCCCCCN(CCCNC(=O)C1CCC2(CC1)OOC1(O2)C2CC3CC(C2)CC1C3)C(=O)OC(C)(C)C)CCCNC(=O)C1CCC2(CC1)OOC1(O2)C2CC3CC(C2)CC1C3 (centres undefined) | 7.49 |
| O=C(NCCCN(CCCCCCCCN(CCCNC(=O)C1CCC2(CC1)OOC1(O2)C2CC3CC(C2)CC1C3)C(=O)C1CCC2(CC1)OOC1(O2)C2CC3CC(C2)CC1C3)C(=O)C1CCC2(CC1)OOC1(O2)C2CC3CC(C2)CC1C3)C1CCC2(CC1)OOC1(O2)C2CC3CC(C2)CC1C3 (centres undefined) | 7.96 |
| O=C(NCCCN(CCCCCCCCCCN(CCCNC(=O)C1CCC2(CC1)OOC1(O2)C2CC3CC(C2)CC1C3)C(=O)C1CCC2(CC1)OOC1(O2)C2CC3CC(C2)CC1C3)C(=O)C1CCC2(CC1)OOC1(O2)C2CC3CC(C2)CC1C3)C1CCC2(CC1)OOC1(O2)C2CC3CC(C2)CC1C3 (centres undefined) | 7.52 |
| CC(C)(C)OC(=O)N(CCCCCCN(CCCNC(=O)C1CCC2(CC1)OOC1(O2)C2CC3CC(C2)CC1C3)C(=O)OC(C)(C)C)CCCNC(=O)C1CCC2(CC1)OOC1(O2)C2CC3CC(C2)CC1C3 (centres undefined) | 8.30 |
